Examples of compounds with documented z-score follow.
experiment: CREB reporter modulators under forskolin, primary screen, cell-based, PC12, CRE-LacZ reporter, forskolin-stimulated (AID 1146);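 further: PC12 cells with 6xCRE LacZ reporter stimulated by forskolin 10 µM; beta-galactosidase reporter signal reflecting CREB driven transcription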
test-context: luminescence, 4.5 h, higher = more signal, called active from +8 up or from −8 down
The source made the active and inactive calls.

Q: Name the recorded z-score of the item CC(C)[C@@H](C(=O)O)n1cc(-c2ccccn2)nn1 in your answer.
Result: 0.159 (inactive)

Q: Name the recorded z-score of the item C=C(C(=O)CC[C@H](OC(C)=O)c1ccc(CO)o1)C(C)C in your answer.
Result: -0.949 (inactive)

Q: Name the recorded z-score of the item CCCC[C@@H](O)C1=C(C)C[C@H]2C(=O)N(C)C(=O)[C@H]2[C@H]1CO in your answer.
Result: -2.14 (inactive)

Q: Name the recorded z-score of the item CC(C)C[C@@H]1NC(=O)[C@@]23C(=O)N[C@@H](Cc4ccccc4)C2[C@H](C)[C@@]2(C)O[C@H]2C3/C=C/C/C=C\CNC(=O)[C@H](Cc2ccccc2)NC1=O (some centres undefined) in your answer.
Result: -2.06 (inactive)

Q: Name the recorded z-score of the item CCOC(=O)C[C@H]1[C@H](OC(=O)c2ccc(-c3ccccc3)cc2)[C@@H](NC(=O)c2ccccc2)c2cc(OCCCO)ccc2N1C(=O)c1ccccc1 in your answer.
Result: -0.843 (inactive)

====

target-desc: E3 ubiquitin-protein ligase XIAP (Homo sapiens) (UniProt P98170)
Sequence (P98170 whole entry, looked up): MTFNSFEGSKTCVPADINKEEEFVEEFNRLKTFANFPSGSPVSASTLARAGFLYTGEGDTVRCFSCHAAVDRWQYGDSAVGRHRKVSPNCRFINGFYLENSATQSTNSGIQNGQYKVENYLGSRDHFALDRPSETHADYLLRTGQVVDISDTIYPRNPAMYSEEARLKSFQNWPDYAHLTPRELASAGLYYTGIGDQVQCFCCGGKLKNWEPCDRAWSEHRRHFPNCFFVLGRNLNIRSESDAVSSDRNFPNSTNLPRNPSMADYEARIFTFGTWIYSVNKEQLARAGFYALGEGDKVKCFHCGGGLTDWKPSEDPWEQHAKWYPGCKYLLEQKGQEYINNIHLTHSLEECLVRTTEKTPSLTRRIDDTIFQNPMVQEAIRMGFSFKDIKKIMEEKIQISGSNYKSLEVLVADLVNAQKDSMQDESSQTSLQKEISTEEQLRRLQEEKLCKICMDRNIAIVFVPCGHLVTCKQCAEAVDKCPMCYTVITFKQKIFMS
experiment: XIAP binders, primary screen, biophysical, small-molecule microarray, fluorescence 635 nm (AID 1181);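 further: score merges 667 nm emission and signal to noise over triplicate slides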
test-context: small-molecule microarray binding, higher = more signal
Examples of molecules with documented composite z-score follow.
Keep the answer to the number alone.

Below, each entry is followed by its recorded composite z-score result.
{"molecule": "CCCNC(=O)[C@@H]1c2ccccc2C(=O)N(Cc2cc(C(F)(F)F)cc(C(F)(F)F)c2)[C@H]1c1ccc(CO)cc1", "property-label": "composite z-score", "measured-value": -0.374}
{"molecule": "COC(=O)C1=CC(c2ccc(CO)cc2)=CC(C2CC2)N(C)C=C1C(=O)OC (configuration not stated)", "property-label": "composite z-score", "measured-value": -0.0388}
{"molecule": "COCCOC(=O)N1C(=O)[C@@]2(c3cc(C#CC4(O)CCCCCC4)ccc31)[C@H](c1ccc(O)cc1)N1[C@H](c3ccccc3)[C@H](c3ccccc3)OC(=O)[C@H]1[C@@H]2C(N)=O", "property-label": "composite z-score", "measured-value": 0.166}
{"molecule": "[N-]=[N+]=NCc1ccccc1C[C@]1(C(=O)NCc2ccccc2)N=C(c2ccc(OCCCO)cc2)O[C@H]1c1ccccc1", "property-label": "composite z-score", "measured-value": 0.191}

Q: Name the recorded composite z-score of the item COc1ccc([Si](C)(C)[C@@H]2[C@@H](CC(=O)N3CCC[C@H]3CO)O[C@]3(C(=O)N(Cc4ccc(I)cc4)c4ccccc43)[C@H]2C)cc1 in your answer.
Result: 0.0368

Q: Name the recorded composite z-score of the item C=CCC(OC(C)=O)[C@@H]1[C@@H](N(Cc2cccc3ccccc23)C(=O)Cc2ccc(OC)cc2)c2cc(OCCCO)ccc2N1C(=O)Cc1ccc(OC)cc1 (some centres not stated) in your answer.
Result: 0.183

Q: Name the recorded composite z-score of the item C=CC[C@@]1(C(=O)NCc2ccccc2)N=C(c2ccc(OCCCO)cc2)O[C@@H]1c1ccccc1 in your answer.
Result: 1.49
